Reference for the values: patent US20140303105A1

Test system: Coagulase-negative Staphylococus sp., methicillin susceptible
Test: Standard microdilution susceptibility test, clinical isolates
Format: cell-based
Conditions: 10 clinical isolates
compounds and their reported Ratio of Sensitive/Total

COMPOUND	Ratio of Sensitive/Total
NC[C@H]1O[C@H](O[C@H]2[C@H](O)[C@@H](O[C@H]3O[C@H](CO)[C@@H](O)[C@H](N)[C@H]3O)[C@H](N)C[C@@H]2N)[C@H](N)C[C@@H]1O [Tobramycin]	10/10

Give the measured Ratio of Sensitive/Total of CN[C@H](CC(C)C)C(=O)N[C@H]1C(=O)N[C@@H](CC(N)=O)C(=O)N[C@H]2C(=O)N[C@H]3C(=O)N[C@H](C(=O)N[C@H](C(=O)O)c4cc(O)cc(O)c4-c4cc3ccc4O)[C@H](O)c3ccc(c(Cl)c3)Oc3cc2cc(c3O[C@@H]2O[C@H](CO)[C@@H](O)[C@H](O)[C@H]2O[C@H]2C[C@](C)(N)[C@H](O)[C@H](C)O2)Oc2ccc(cc2Cl)[C@H]1O [Vancomycin] .
10/10

Give the measured Ratio of Sensitive/Total of CC1COc2c(N3CCN(C)CC3)c(F)cc3c(=O)c(C(=O)O)cn1c23 (stereo not shown) [Ofloxacin] .
10/10

Give the measured Ratio of Sensitive/Total of CN(C)[C@@H]1C(O)=C(C(N)=O)C(=O)[C@@]2(O)C(O)=C3C(=O)c4c(O)cccc4[C@@](C)(O)[C@H]3[C@H](O)[C@@H]12 [Oxytetracycline] .
9/10

---

System: Streptococcus pneumoniae, penicillin resistant
Assay: Standard microdilution susceptibility test, clinical isolates
Format: cell-based
Conditions: Streptococcus pneumoniae; 10 clinical isolates; read-out: MIC 90%
TEST READOUT: MIC90

Before answering, review these 3 worked examples.
COMPOUND	MIC90
NC[C@H]1O[C@H](O[C@H]2[C@H](O)[C@@H](O[C@H]3O[C@H](CO)[C@@H](O)[C@H](N)[C@H]3O)[C@H](N)C[C@@H]2N)[C@H](N)C[C@@H]1O	> 32 µg/mL
CC[C@H]1OC(=O)[C@H](C)[C@@H](O[C@H]2C[C@@](C)(OC)[C@@H](O)[C@H](C)O2)[C@H](C)[C@@H](O[C@@H]2O[C@H](C)C[C@H](N(C)C)[C@H]2O)[C@](C)(O)C[C@@H](C)C(=O)[C@H](C)[C@@H](O)[C@]1(C)O	> 16 µg/mL
CN(C)[C@@H]1C(O)=C(C(N)=O)C(=O)[C@@]2(O)C(O)=C3C(=O)c4c(O)cccc4[C@@](C)(O)[C@H]3[C@H](O)[C@@H]12	> 32 µg/mL

Give the measured MIC90 of CC1COc2c(N3CCN(C)CC3)c(F)cc3c(=O)c(C(=O)O)cn1c23 (stereo not shown) .
2 µg/mL
